Test system: HCT116 cells
Assay type: binding, human
Details: 48 h
Where no end group is shown, it is not given here.

[
  {
    "sequence.chain": "YNTNHVPLSPKY [CaIX-P1]",
    "target.system": "HCT116 cells",
    "IC50": "1000 to 5000 nM"
  }
]
